The origin of these recorded values is ChEMBL document CHEMBL2321820.

# assay.overview: Volume of distribution at steady state in Beagle dog at 2 mg/kg, iv
# Assay type: ADME, organism-based, Canis lupus familiaris
# Design: dose 2 mg/kg, route intravenous
# condition.summary: in vivo, read-out: Vdss
attribute.measured: Vd

Data request, read-out Vd, for C[C@@H]1CN(c2ccc(F)cc2C(F)(F)F)CCN1S(=O)(=O)c1ccc([C@@](O)(C(N)=O)C(F)(F)F)s1
1.8 L/kg

* * *

# assay.overview: Half life in Beagle dog at 2 mg/kg, iv
# Format: ADME, organism-based, Canis lupus familiaris
# Set-up: dose 2 mg/kg, route intravenous
# condition.summary: in vivo
attribute.measured: half-life
The number alone won't do; follow it with the unit.

Data request, read-out half-life, for C[C@@H]1CN(c2ccc(F)cc2C(F)(F)F)CCN1S(=O)(=O)c1ccc([C@@](O)(C(N)=O)C(F)(F)F)s1
20.3 h

* * *

# system: UniProtKB P50172
# Sequence (P50172 whole entry): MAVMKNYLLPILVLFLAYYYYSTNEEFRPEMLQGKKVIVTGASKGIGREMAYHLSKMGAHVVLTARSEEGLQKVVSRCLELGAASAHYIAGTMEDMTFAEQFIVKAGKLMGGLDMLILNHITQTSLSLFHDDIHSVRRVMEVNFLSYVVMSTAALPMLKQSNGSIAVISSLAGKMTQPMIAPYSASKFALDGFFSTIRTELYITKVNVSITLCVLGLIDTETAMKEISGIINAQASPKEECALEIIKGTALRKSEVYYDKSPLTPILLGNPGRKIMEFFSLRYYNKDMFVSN
# assay.overview: Inhibition of mouse 11beta-HSD1 expressed in CHO cells […] incubated for 30 mins prior to substrate addition measured after 120 mins by chemiluminescence assay in presence of 10% human serum
# Type: cell-based
Field: pIC50. Provide a value for each of the compounds that follow.
pIC50 is defined as minus the log10 of a concentration measured in mol/L.

Data request, read-out pIC50, for C[C@@H]1CN(c2ccc(F)cc2C(F)(F)F)CCN1S(=O)(=O)c1ccc([C@@](O)(C(N)=O)C(F)(F)F)s1
8.00

Data request, read-out pIC50, for C[C@@H]1CN(c2ccc(F)cc2C(F)(F)F)CCN1S(=O)(=O)c1cccc([C@@](O)(C(N)=O)C(F)(F)F)c1
8.00

Data request, read-out pIC50, for C[C@@H]1CN(c2ccc(F)cc2C(F)(F)F)CCN1S(=O)(=O)c1cn(C)c(C(C)(O)C(F)(F)F)n1 (some centres undefined)
7.74

Data request, read-out pIC50, for C[C@@H]1CN(c2ccc(F)cc2C(F)(F)F)CCN1S(=O)(=O)c1ccc([C@](O)(C(N)=O)C(F)(F)F)s1
8.00

* * *

# assay.overview: AUC in Beagle dog at 2 mg/kg, iv
# Type: ADME, organism-based, Canis lupus familiaris
# Design: dose 2 mg/kg, route intravenous
# condition.summary: plasma
attribute.measured: AUC (ng·h/mL)
Just the number in ng·h/mL, nothing appended.

Data request, read-out AUC, for C[C@@H]1CN(c2ccc(F)cc2C(F)(F)F)CCN1S(=O)(=O)c1ccc([C@@](O)(C(N)=O)C(F)(F)F)s1
32400

* * *

Field: half-life. Provide a value for each of the molecules that follow.
# assay.overview: Half life in human liver microsomes
# Format: ADME, Microsome
Just the number in min, nothing appended.

Data request, read-out half-life, for C[C@@H]1CN(c2ccc(F)cc2C(F)(F)F)CCN1S(=O)(=O)c1cn(C)c(C(C)(O)C(F)(F)F)n1 (some centres not stated)
10

Data request, read-out half-life, for C[C@@H]1CN(c2ccc(F)cc2C(F)(F)F)CCN1S(=O)(=O)c1ccc([C@@](O)(C(N)=O)C(F)(F)F)cc1
10

Data request, read-out half-life, for C[C@@H]1CN(c2ccc(C(N)=O)cc2C(F)(F)F)CCN1S(=O)(=O)c1ccc([C@](C)(O)C(F)(F)F)s1
10

Data request, read-out half-life, for C[C@@H]1CN(c2ccc(F)cc2C(F)(F)F)CCN1S(=O)(=O)c1cccc([C@@](O)(C(N)=O)C(F)(F)F)c1
18

Data request, read-out half-life, for C[C@@H]1CN(c2ccc(F)cc2C(F)(F)F)CCN1S(=O)(=O)c1ccc([C@](O)(C(N)=O)C(F)(F)F)s1
18

Data request, read-out half-life, for C[C@@H]1CN(c2ccc(F)cc2C(F)(F)F)CCN1S(=O)(=O)c1ncc([C@](O)(C(N)=O)C(F)(F)F)s1
19
